Organism: Rattus norvegicus
Procedure summary: Open TG-GATES - Regimen: Daily Repeat
Assay type: toxicity, organism-based, Sprague-Dawley
Set-up: regimen Daily Repeat, gender Male, age 6 weeks
Measurement context: in vivo, po, 0 mg/kg, […], tissue Plasma, route gavage, dose level Control, time 14 day
Listed here: items and their measured CRE.
Measurement kind: CRE (mg/dL)

>>> meas_value("CSc1ccc2c(c1)N(CCC1CCCCN1C)c1ccccc1S2 (centres undefined) [THIORIDAZINE]")
0.5
>>> meas_value("Clc1ccccc1CN1CCc2sccc2C1 [TICLOPIDINE]")
0.4
>>> meas_value("Cn1c(=O)c2[nH]cnc2n(C)c1=O.O [THEOPHYLLINE]")
0.2
>>> meas_value("CO[C@H]1/C=C/O[C@@]2(C)Oc3c(C)c(O)c4c(O)c(c(/C=N/N5CCN(C)CC5)c(O)c4c3C2=O)NC(=O)/C(C)=C\\C=C\\[C@H](C)[C@H](O)[C@@H](C)[C@@H](O)[C@@H](C)[C@H](OC(C)=O)[C@@H]1C [RIFAMPIN]")
0.6
>>> meas_value("C[C@H](CS)C(=O)N1CCC[C@H]1C(=O)O [CAPTOPRIL]")
0.5
>>> meas_value("NC(=O)N/N=C/c1ccc([N+](=O)[O-])o1 [NITROFURAZONE]")
0.2
>>> meas_value("CC(=O)Oc1ccccc1C(=O)O [ASPIRIN]")
0.4
>>> meas_value("COc1ccc(Cc2nccc3cc(OC)c(OC)cc23)cc1OC [PAPAVERINE]")
0.2
>>> meas_value("O=C(O)c1cc(/N=N/c2ccc(S(=O)(=O)Nc3ccccn3)cc2)ccc1O [SULFASALAZINE]")
0.5

---

Species: Rattus norvegicus
Procedure summary: Open TG-GATES - Regimen: Daily Repeat
Assay type: toxicity, organism-based, Sprague-Dawley
Set-up: regimen Daily Repeat, gender Male, age 6 weeks
Measurement context: in vivo, po, 0 mg/kg, […], tissue Kidney, route gavage, dose level Control, time 28 day
Measurement kind: KIDNEY_R (g)

>>> meas_value("COc1ccc2c(c1)c(CC(=O)O)c(C)n2C(=O)c1ccc(Cl)cc1")
1.5
>>> meas_value("COc1ccc(Cc2nccc3cc(OC)c(OC)cc23)cc1OC")
1.5
>>> meas_value("NC(=O)N1c2ccccc2C=Cc2ccccc21 [CARBAMAZEPINE]")
1.4
>>> meas_value("CCc1cc(C(N)=S)ccn1 [ETHIONAMIDE]")
1.6
>>> meas_value("NC(=O)N/N=C/c1ccc([N+](=O)[O-])o1")
1.3
>>> meas_value("C[C@H](CS)C(=O)N1CCC[C@H]1C(=O)O")
1.4
>>> meas_value("Clc1ccccc1CN1CCc2sccc2C1")
1.3
>>> meas_value("O=C(O)c1cc(/N=N/c2ccc(S(=O)(=O)Nc3ccccn3)cc2)ccc1O")
1.3
>>> meas_value("CO[C@H]1/C=C/O[C@@]2(C)Oc3c(C)c(O)c4c(O)c(c(/C=N/N5CCN(C)CC5)c(O)c4c3C2=O)NC(=O)/C(C)=C\\C=C\\[C@H](C)[C@H](O)[C@@H](C)[C@@H](O)[C@@H](C)[C@H](OC(C)=O)[C@@H]1C")
1.4

---

Organism: Rattus norvegicus
Procedure summary: Open TG-GATES - Regimen: Daily Repeat
Assay type: toxicity, organism-based, Sprague-Dawley
Parameters: regimen Daily Repeat, gender Male, age 6 weeks
Measurement context: in vivo, po, 0 mg/kg, 72 h, tissue Plasma, route gavage, dose level Control, time 3 day
Listed here: items and their measured PL.
Measurement kind: PL (mg/dL)

>>> meas_value("C[C@H](CS)C(=O)N1CCC[C@H]1C(=O)O [CAPTOPRIL]")
142.4
>>> meas_value("CSc1ccc2c(c1)N(CCC1CCCCN1C)c1ccccc1S2 (stereo not drawn) [THIORIDAZINE]")
159.6
>>> meas_value("CCCC(CCC)C(=O)O [VALPROIC ACID]")
145.2
>>> meas_value("CN(C)CCC=C1c2ccccc2CCc2ccccc21 [AMITRIPTYLINE]")
162.2
>>> meas_value("O=C(O)c1cc(/N=N/c2ccc(S(=O)(=O)Nc3ccccn3)cc2)ccc1O [SULFASALAZINE]")
157
>>> meas_value("COc1ccc(Cc2nccc3cc(OC)c(OC)cc23)cc1OC [PAPAVERINE]")
136.4
>>> meas_value("NC(=O)N/N=C/c1ccc([N+](=O)[O-])o1 [NITROFURAZONE]")
161.2
>>> meas_value("CO[C@H]1/C=C/O[C@@]2(C)Oc3c(C)c(O)c4c(O)c(c(/C=N/N5CCN(C)CC5)c(O)c4c3C2=O)NC(=O)/C(C)=C\\C=C\\[C@H](C)[C@H](O)[C@@H](C)[C@@H](O)[C@@H](C)[C@H](OC(C)=O)[C@@H]1C [RIFAMPIN]")
157

---

Organism: Rattus norvegicus
Procedure summary: Open TG-GATES - Regimen: Single
Type: toxicity, organism-based, Sprague-Dawley
Design: regimen Single, gender Male, age 6 weeks
Measurement context: in vivo, po, 1000 mg/kg, 9 h, tissue Plasma, route gavage, dose level High
I'd appreciate it if you marked entries Condition met when LDH is lower than 100 IU/L and Condition not met when it is not.

>>> assigned_category("O=C(O)c1cn(C2CC2)c2cc(N3CCNCC3)c(F)cc2c1=O")
"Condition not met"
>>> assigned_category("Clc1ccccc1CN1CCc2sccc2C1")
"Condition not met"
>>> assigned_category("C[C@H](CS)C(=O)N1CCC[C@H]1C(=O)O")
"Condition met"
>>> assigned_category("O=C(O)c1cc(/N=N/c2ccc(S(=O)(=O)Nc3ccccn3)cc2)ccc1O")
"Condition not met"

---

Species: Rattus norvegicus
Procedure summary: Open TG-GATES - Regimen: Single
Assay type: toxicity, organism-based, Sprague-Dawley
Design: regimen Single, gender Male, age 6 weeks
Measurement context: in vivo, po, 0 mg/kg, 6 h, tissue Plasma, route gavage, dose level Control
Measurement kind: TC (mg/dL)

>>> meas_value("C[C@H](CS)C(=O)N1CCC[C@H]1C(=O)O")
76.8
>>> meas_value("Clc1ccccc1CN1CCc2sccc2C1")
70.8
>>> meas_value("Cn1c(=O)c2[nH]cnc2n(C)c1=O.O")
72.8
>>> meas_value("O=C(O)c1cc(/N=N/c2ccc(S(=O)(=O)Nc3ccccn3)cc2)ccc1O")
73.2
>>> meas_value("COc1ccc(Cc2nccc3cc(OC)c(OC)cc23)cc1OC")
79.2

---

Species: Rattus norvegicus
Procedure summary: Open TG-GATES - Regimen: Single
Format: toxicity, organism-based, Sprague-Dawley
Design: regimen Single, gender Male, age 6 weeks
Measurement context: in vivo, po, 300 mg/kg, 6 h, tissue Kidney, route gavage, dose level Middle
Listed here: items and their measured KIDNEY_L.
Measurement kind: KIDNEY_L (g)

>>> meas_value("C[C@H](CS)C(=O)N1CCC[C@H]1C(=O)O [CAPTOPRIL]")
1
>>> meas_value("O=C(O)c1cc(/N=N/c2ccc(S(=O)(=O)Nc3ccccn3)cc2)ccc1O [SULFASALAZINE]")
1
>>> meas_value("CCc1cc(C(N)=S)ccn1 [ETHIONAMIDE]")
1
>>> meas_value("Clc1ccccc1CN1CCc2sccc2C1 [TICLOPIDINE]")
1
>>> meas_value("O=C(O)c1cn(C2CC2)c2cc(N3CCNCC3)c(F)cc2c1=O [CIPROFLOXACIN]")
0.9

---

Species: Rattus norvegicus
Procedure summary: Open TG-GATES - Regimen: Single
Type: toxicity, organism-based, Sprague-Dawley
Set-up: regimen Single, gender Male, age 6 weeks
Measurement context: in vivo, po, 1000 mg/kg, 24 h, tissue Blood, route gavage, dose level High
Listed here: items and their measured Eos.
Measurement kind: Eos (%)

>>> meas_value("O=C(O)c1cn(C2CC2)c2cc(N3CCNCC3)c(F)cc2c1=O [CIPROFLOXACIN]")
0.8
>>> meas_value("CCc1cc(C(N)=S)ccn1 [ETHIONAMIDE]")
1.6
>>> meas_value("Clc1ccccc1CN1CCc2sccc2C1 [TICLOPIDINE]")
1.2
>>> meas_value("O=C(O)c1cc(/N=N/c2ccc(S(=O)(=O)Nc3ccccn3)cc2)ccc1O [SULFASALAZINE]")
0.8
>>> meas_value("C[C@H](CS)C(=O)N1CCC[C@H]1C(=O)O [CAPTOPRIL]")
1

---

Species on record: Rattus norvegicus
Procedure summary: Open TG-GATES - Regimen: Single
Assay type: toxicity, organism-based, Sprague-Dawley
Parameters: regimen Single, gender Male, age 6 weeks
Measurement context: in vivo, po, 0 mg/kg, 6 h, tissue Kidney, route gavage, dose level Control
Measurement kind: KIDNEY_R (g)

>>> meas_value("CN(C)CCC=C1c2ccccc2CCc2ccccc21 [AMITRIPTYLINE]")
0.8
>>> meas_value("COc1ccc(Cc2nccc3cc(OC)c(OC)cc23)cc1OC [PAPAVERINE]")
0.9
>>> meas_value("NC(=O)N1c2ccccc2C=Cc2ccccc21 [CARBAMAZEPINE]")
1
